Taken from paper PMC7450492.

Molecular target: UniProt:P43405
result_type: IC50 (nM)
// return numeric value only (unit: nM, not printed)

Item Cc1nn(-c2ccnc(Nc3ccc(-c4csc5c(=O)cc(N6CCOCC6)oc45)cc3)n2)cc1CN1CCC1 [SRX3207] with UniProt:P43405 - IC50? 30
